test system: DENV; experiment: DENV antiviral assay for combination of GSK983 and DP; assay type: cell-based, dengue virus serotype 2 strain 16681; details: Dengue virus, A549, 72 h, read-out: EC50 of DP, DENV luciferase signal, 3 days post-infection
reported_metric: EC50 (nM)
The answer is to be given in nM; state only the numeric part.

What value of EC50 has been reported for the following compound? OCCN(CCO)c1nc(N2CCCCC2)c2nc(N(CCO)CCO)nc(N3CCCCC3)c2n1 [DP, dipyridamole]
164

* * *

system: DENV; assay: DENV antiviral assay (DENV-Luc replication in A549 cells); type: cell-based, dengue virus serotype 2 strain 16681; settings: Dengue virus, A549, 72 h, read-out: IC50, inhibition of DENV replication with exogenous deoxycytidine
reported_metric: IC50 (nM)
Response body: numeric value in nM, unit text excluded.

I have this compound here, `O=C(N[C@@H]1CCCc2c1[nH]c1ccc(Cl)cc21)c1ccccn1` , and I need its recorded IC50.
13.5

* * *

biological target: recombinant human DHODH (Homo sapiens); experiment: In vitro enzyme activity assay with recombinant human Δ29DHODH (DCPIP coupled assay); settings: recombinant human Δ29DHODH 10 nM, DHO 200 μM; read-out: Ki, DHODH, competitive with respect to decylubiquinone binding
Sequence (Q02127 30-395): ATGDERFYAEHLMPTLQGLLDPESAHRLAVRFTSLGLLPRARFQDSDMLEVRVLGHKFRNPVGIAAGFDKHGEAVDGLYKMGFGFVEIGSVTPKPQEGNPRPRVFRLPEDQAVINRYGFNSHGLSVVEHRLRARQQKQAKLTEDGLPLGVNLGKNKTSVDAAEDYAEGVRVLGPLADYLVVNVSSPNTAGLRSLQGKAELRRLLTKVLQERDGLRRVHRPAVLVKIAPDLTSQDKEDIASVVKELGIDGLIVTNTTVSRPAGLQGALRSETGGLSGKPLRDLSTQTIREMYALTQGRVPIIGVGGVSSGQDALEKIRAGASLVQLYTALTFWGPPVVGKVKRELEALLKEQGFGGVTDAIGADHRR
reported_metric: Ki
Please append the unit to your numeric answer.

Which value of Ki has been reported for O=C(N[C@@H]1CCCc2c1[nH]c1ccc(Cl)cc21)c1ccccn1 [GSK983] in the records?
403 nM

* * *

system: K562 cells; test: GSK983 dose response, K562 cell growth (viable cells by flow cytometry); format: cell-based; settings: Homo sapiens, 72 h treatment, viable cells counted by flow cytometry, read-out: IC50, inhibition of K562 cell growth
reported_metric: pIC50
Conceptually, pIC50 converts a concentration in mol/L into minus its log10.

Need pIC50, item `O=C(N[C@@H]1CCCc2c1[nH]c1ccc(Cl)cc21)c1ccccn1`
7.68
